The measured values listed here are drawn from patent US9926271B2.

# tested_target: RBP4-TTR interaction (Homo sapiens, UniProt P02753)
# assay_comment: TR-FRET (HTRF) assay for retinol-induced RBP4-TTR interaction
# Format: biochemical
# Set-up: human RBP4 fragment (amino acids 19-201); host or cells: Gold(DE3)pLysS E. coli strain (Stratagene), pMAL-c4x vector
# assay_context: in the presence of 1 μM retinol; read-out: HTRF assay for antagonists of RBP4-TTR interaction: IC50
measure_name: pIC50
Quick note: pIC50 means taking -log10 of the concentration in moles per liter.

Consider the following illustrative entries.
## Task For the compound shown here, COc1cc(C(=O)O)nc(N2C[C@H]3C[C@@H](c4ccccc4C(F)(F)F)C[C@H]3C2)n1 [Compound 62] , give the reported pIC50.
## Result 7.06

## Task For the compound shown here, Cc1nc(N2C[C@H]3C[C@@H](c4ccccc4C(F)(F)F)C[C@H]3C2)nc(C(=O)O)c1C [Compound 74] , give the reported pIC50.
## Result 6.91

## Task For the compound shown here, CC(C)c1cc(C(=O)O)nc(N2C[C@H]3C[C@@H](c4ccccc4C(F)(F)F)C[C@H]3C2)n1 [Compound 63] , give the reported pIC50.
## Result 6.69

## Task For the compound shown here, Cc1cc(C(=O)O)cc(N2C[C@H]3C[C@@H](c4ccccc4C(F)(F)F)C[C@H]3C2)n1 [Compound 70] , give the reported pIC50.
## Result 6.64

## Task For the compound shown here, Cc1cnc(N2C[C@H]3C[C@@H](c4ccccc4C(F)(F)F)C[C@H]3C2)nc1C(=O)O [Compound 66] , give the reported pIC50.
## Result 6.22

## Task For the compound shown here, O=C(O)c1cccnc1N1C[C@H]2C[C@@H](c3ccccc3C(F)(F)F)C[C@H]2C1 [Compound 71] , give the reported pIC50.
## Result 6.42

## Task For the compound shown here, Cc1cc(C(=O)O)nc(N2C[C@H]3C[C@@H](c4cc(F)ccc4C(F)(F)F)C[C@H]3C2)n1 [Compound 72] , give the reported pIC50.
## Result 7.31

## Task For the compound shown here, O=C(O)c1cnc(N2C[C@H]3C[C@@H](c4ccccc4C(F)(F)F)C[C@H]3C2)nc1 [Compound 68] , give the reported pIC50.
## Result 5.73

## Task For the compound shown here, O=C(O)c1nc(N2C[C@H]3C[C@@H](c4ccccc4C(F)(F)F)C[C@H]3C2)ncc1F [Compound 67] , give the reported pIC50.
## Result 6.56

## Task For the compound shown here, Cc1cc(C(=O)O)nc(N2C[C@H]3C[C@@H](c4ccccc4C(F)(F)F)C[C@H]3C2)c1 [Compound 69] , give the reported pIC50.
## Result 6.53

---
## Task For the compound shown here, O=C(O)c1ccnc(N2C[C@H]3C[C@@H](c4ccccc4C(F)(F)F)C[C@H]3C2)n1 [Compound 64] , give the reported pIC50.
## Result 7.10

## Task For the compound shown here, O=C(O)c1cc(C(F)(F)F)nc(N2C[C@H]3C[C@@H](c4ccccc4C(F)(F)F)C[C@H]3C2)n1 [Compound 65] , give the reported pIC50.
## Result 7.06

* * *

Entries below carry reported IC50 on RBP4 (Homo sapiens, UniProt P02753).
Answer in nM, number only, no unit symbol.

## Task For the compound shown here, O=C(O)c1cc(C(F)(F)F)nc(N2C[C@H]3C[C@@H](c4ccccc4C(F)(F)F)C[C@H]3C2)n1 , give the reported IC50.
## Result 9.5

## Task For the compound shown here, O=C(O)c1cnc(N2C[C@H]3C[C@@H](c4ccccc4C(F)(F)F)C[C@H]3C2)nc1 , give the reported IC50.
## Result 172

## Task For the compound shown here, Cc1cc(NC(=O)N2C[C@H]3C[C@@H](c4ccccc4C(F)(F)F)C[C@H]3C2)c(C(=O)O)cn1 , give the reported IC50.
## Result 23.9

---
## Task For the compound shown here, CC(C)c1cc(C(=O)O)nc(N2C[C@H]3C[C@@H](c4ccccc4C(F)(F)F)C[C@H]3C2)n1 , give the reported IC50.
## Result 158

## Task For the compound shown here, Cc1cc(C(=O)O)cc(N2C[C@H]3C[C@@H](c4ccccc4C(F)(F)F)C[C@H]3C2)n1 , give the reported IC50.
## Result 53.2

## Task For the compound shown here, O=C(O)c1nc(N2C[C@H]3C[C@@H](c4ccccc4C(F)(F)F)C[C@H]3C2)ncc1F , give the reported IC50.
## Result 25.9
